system: Vero E6 infected with SARS-CoV-2; assay: inhibition of SARS-CoV-2 cytopathic effect; higher = more antiviral protection, active = above 15; conditions: 10000 nM; 48 h
measurement.name: inhibition of SARS-CoV-2 cytopathic effect (%)
Give bare numbers, in %.

See these solved cases before continuing.
Entry `COc1cccc(NC(=O)/C=C/c2ccc(Cl)cc2)c1` — recorded inhibition of SARS-CoV-2 cytopathic effect = -4.87

Entry CCN(CC)C(=O)N[C@H]1C=C2c3cccc4[nH]cc(c34)C[C@H]2N(C)C1 [lisuride] — recorded inhibition of SARS-CoV-2 cytopathic effect = -0.37

Entry `O=S(=O)(N[C@H](CO)C(C(F)(F)F)C(F)(F)F)c1ccc(Cl)s1` — recorded inhibition of SARS-CoV-2 cytopathic effect = -7.85

Entry `O=C(O)/C=C/c1ccc(O)cc1` — recorded inhibition of SARS-CoV-2 cytopathic effect = -0.09

Entry `CN(C)C(=O)Nc1cccc(-c2ccc(N(C)C)cc2)c1` — recorded inhibition of SARS-CoV-2 cytopathic effect = 1.31

For each listed entry, give its inhibition of SARS-CoV-2 cytopathic effect.
1. CN/C(=N\CCSCc1nc[nH]c1C)NC#N
2. Nc1nc2c(ncn2[C@@H]2O[C@H](CO)[C@@H](O)[C@H]2O)c(=O)[nH]1
3. CC(=O)N(O)C/C=C/c1cccc(Oc2ccccc2)c1

1. -1.84
2. 0.09
3. -2.02

For each listed entry, give its inhibition of SARS-CoV-2 cytopathic effect.
1. O=C(NNc1ccccc1)c1ccncc1
2. COC(=O)Nc1ccc2[nH]cc(CCNC(C)=O)c2c1
3. Cc1cccc(Nc2ccncc2S(=O)(=O)NC(=O)NC(C)C)c1 [torasemide]

1: -6.02; 2: -1.85; 3: -1.02
